Method description: Binding affinity to human RFC2 expressed in human HeLa R1-11 cells assessed as antiproliferative activity measured as reduction in cell growth after 96 hrs by Cell-Titer Blue assay
pIC50: −log10 of the molar value.
Exercise: for every item that follows, state its recorded pIC50.

QUERY: Please give the measured pIC50 for this molecule: Nc1nc2[nH]c(CCCc3ccc(C(=O)N[C@@H](CCC(=O)O)C(=O)O)cc3)cc2c(=O)[nH]1
RESULT: < 6.00

QUERY: Please give the measured pIC50 for this molecule: Nc1nc2[nH]c(CCCCc3ccc(C(=O)N[C@@H](CCC(=O)O)C(=O)O)cc3)cc2c(=O)[nH]1
RESULT: < 6.00

QUERY: Please give the measured pIC50 for this molecule: Nc1nc2[nH]c(CCCCc3csc(C(=O)N[C@@H](CCC(=O)O)C(=O)O)c3)cc2c(=O)[nH]1
RESULT: < 6.00
